# EXPERIMENT: Lipophilicity, log P of the compound in PBS buffer
# Type: physicochemical
QUANTITY_KIND: logP
Quick one: just the number, no unit, thanks!

Example molecules with recorded logP:
1. COc1cc(CNC(=O)CCCC/C=C/C(C)C)ccc1O [CAPSAICIN]    3.74
2. CNCC1CCCCN1C(=O)Oc1ccc(CNC(=O)CCCC/C=C/C(C)C)cc1OC (centres undefined) [VOCACAPSAICIN]    4.32
3. CC(C)=CCCC1(C)CC1CO (centres undefined)    2.5

We now examine a further molecule.
Request: For CC(C)c1cccc(C(C)C)c1O [PROPOFOL] , write its logP.
Response: 4.15
